Recorded % non-allergic individuals with cytokine production in ex-vivo T cell assay IL-13 by entry
# Tested on: PBMC cells obtained from mite allergic patients and non-allergics
# EXPERIMENTAL_PROTOCOL: Ex vivo stimulation of PBMC: cytokine production (IFN-gamma, IL-9, IL-10, IL-17, IL-31)
# Type: cell-based, human
# ASSAY_CONTEXT: non-allergic individuals; IL-13
QUANTITY_MEASURED: % non-allergic individuals with cytokine production in ex-vivo T cell assay IL-13 (%)

{"MOLECULE": "A017: house dust mite protein; SEQ ID NO: 21 (Der f), 25 (Der p), 313 (Blo t) (protein) MSSSSGKKYDFSGKVALVTGSSSGIGAAIALQFAQYGAQVTITGRDAAALESVAKRIEAESGHQPLQIVGNLLDQSLPAKLIDGTISKYGRLDFLVNNAGFSTQHRDIHDEKLMEAFDQVYGLNVRAVVQLSQLAATHLEKSKGNIINISSNLSMMPVHIIYSSSKAALDMITKTMAMEFGKKGVRVNSINPGPVATQFMRSLGMPVTFLKENEEFVKELTLLKFVAQPVEIANLASFLASDDARNMTGSIVVNDTGSLLAPRVDFKKLDEIKKK", "ASSAY_VALUE": 0}
{"MOLECULE": "A016: house dust mite protein; SEQ ID NO: 28 (Der f), 29 (Der p) (protein) MVKIGINGFGRIGRLVLRAAIKKGVEVAAINDPFLDVKYMVYMFKFDSTHGRYQGEVKEEGGLLVVDGQKIQVFQERNPAEIPWGKVGADYVVESTGVFTTIEKAKAHLAGGAKKVIISAPSADAPMYVMGVNHDKYDPKQQIISNASCTTNCLAPLAKVINDKFGIENGLMTTVHAITATQKTVDGPSGKLWRDGRGAGQNIIPASTGAAKAVGKVIPELNGKLTGMALRVPVPDVSVVDLTVTLKNPASYDEIKAAVKAAAESDHWKGILEYTDEEVVSSDFISDTHSSIFDAKAGIALTPTFVKLIAWYDNEFGYSNRVVDLIKYVASK", "ASSAY_VALUE": 0}
